Origin of values: ChEMBL document CHEMBL4152329

Experiment: UV filtering activity of the compound assessed as wavelength at which the integral of the spectral absorbance curve reaches 90% of area under the curve from 290 to 400 nm
Assay type: functional
observed.property: Activity

>>> value_observed("COc1cc(/C=N/NC(=O)c2cc3ccccc3o2)ccc1O")
"371 nm"
>>> value_observed("O=C(N/N=C/c1ccc(O)c(O)c1O)c1cc2ccccc2o1")
"353 nm"
>>> value_observed("O=C(N/N=C/c1c(O)cc(O)cc1O)c1cc2ccccc2o1")
"366 nm"
>>> value_observed("O=C(N/N=C/c1ccc(O)cc1O)c1cc2ccccc2o1")
"342 nm"
>>> value_observed("O=C(N/N=C/c1cccc(O)c1)c1cc2ccccc2o1")
"353 nm"
>>> value_observed("O=C(N/N=C/c1c(O)ccc2ccccc12)c1cc2ccccc2o1")
"359 nm"
>>> value_observed("O=C(N/N=C/c1ccc(O)cc1)c1cc2ccccc2o1")
"322 nm"
>>> value_observed("O=C(N/N=C/c1cc(O)ccc1O)c1cc2ccccc2o1")
"366 nm"
>>> value_observed("O=C(N/N=C/c1cc(Cl)ccc1O)c1cc2ccccc2o1")
"357 nm"
>>> value_observed("CCN(CC)c1ccc(/C=N/NC(=O)c2cc3ccccc3o2)c(O)c1")
"387 nm"
>>> value_observed("O=S(=O)(O)c1ccc2[nH]c(-c3ccccc3)nc2c1")
"394 nm"

----------
Test: Antioxidant activity assessed as ferric ion reducing activity by measuring trolox equivalents after 10 mins by FRAP assay
Assay type: functional
observed.property: Activity

>>> value_observed("O=C(N/N=C/c1c(O)cc(O)cc1O)c1cc2ccccc2o1")
"4020 µmolequiv/g"
>>> value_observed("COc1cc(/C=N/NC(=O)c2cc3ccccc3o2)ccc1O")
"3100 µmolequiv/g"
>>> value_observed("O=C(N/N=C/c1ccc(O)cc1O)c1cc2ccccc2o1")
"1210 µmolequiv/g"
>>> value_observed("O=C(N/N=C/c1cccc(O)c1)c1cc2ccccc2o1")
"1670 µmolequiv/g"
>>> value_observed("O=C(N/N=C/c1cc(O)ccc1O)c1cc2ccccc2o1")
"6970 µmolequiv/g"
>>> value_observed("O=C(N/N=C/c1c(O)ccc2ccccc12)c1cc2ccccc2o1")
"132 µmolequiv/g"
>>> value_observed("O=C(N/N=C/c1ccc(O)c(O)c1O)c1cc2ccccc2o1")
"13200 µmolequiv/g"
>>> value_observed("O=C(N/N=C/c1ccc(O)cc1)c1cc2ccccc2o1")
"2290 µmolequiv/g"
>>> value_observed("CCN(CC)c1ccc(/C=N/NC(=O)c2cc3ccccc3o2)c(O)c1")
"4150 µmolequiv/g"
>>> value_observed("O=C(N/N=C/c1cc(Cl)ccc1O)c1cc2ccccc2o1")
"46.3 µmolequiv/g"

----------
Assay: Antioxidant activity assessed as DPPH free radical scavenging activity by measuring trolox equivalent by spectrophotometric analysis
Format: functional
observed.property: Activity (µmolequiv/g)

>>> value_observed("O=C(N/N=C/c1cccc(O)c1)c1cc2ccccc2o1")
76.7
>>> value_observed("O=C(N/N=C/c1ccc(O)c(O)c1O)c1cc2ccccc2o1")
9210
>>> value_observed("O=C(N/N=C/c1c(O)cc(O)cc1O)c1cc2ccccc2o1")
1140
>>> value_observed("O=C(N/N=C/c1cc(O)ccc1O)c1cc2ccccc2o1")
6200
>>> value_observed("CCN(CC)c1ccc(/C=N/NC(=O)c2cc3ccccc3o2)c(O)c1")
1010
>>> value_observed("O=C(N/N=C/c1c(O)ccc2ccccc12)c1cc2ccccc2o1")
132
>>> value_observed("O=C(N/N=C/c1ccc(O)cc1)c1cc2ccccc2o1")
45.8
>>> value_observed("COc1cc(/C=N/NC(=O)c2cc3ccccc3o2)ccc1O")
101
>>> value_observed("O=C(N/N=C/c1ccc(O)cc1O)c1cc2ccccc2o1")
149
